method: Inhibition of HCV genotype 3a NS5B polymerase assessed as inhibition of [3H]UTP incorporation after 2 hrs by scintillation counting
Design: species or system Hepatitis C virus subtype 3a
metric: IC50

The recorded IC50 for `COc1cc([N+](=O)[O-])c(N2CCC(=O)NC2=O)cc1C(C)(C)C` is > 200 µM

----------
method: Inhibition of HCV genotype 2a NS5B polymerase assessed as inhibition of [3H]UTP incorporation after 2 hrs by scintillation counting
Set-up: species or system Hepatitis C virus subtype 2a
pIC50: −log10 of the molar value.
metric: pIC50

The recorded pIC50 for `COc1cc([N+](=O)[O-])c(N2CCC(=O)NC2=O)cc1C(C)(C)C` is < 3.70
